Recorded Signal/background by entry
SYSTEM UNDER TEST: T1, ADF peptide complexed with HLA-A*02:01 on T2 cells (human)
T1 construct: whole, on cells
METHOD: flow cytometry, peptide-loaded T2 cells;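 note: binding of single-chain Fv antibody constructs, raised in XenoMouse, to peptide-pulsed T2 cells measured by flow cytometry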
Format: numeric value only, no unit, no commentary.

Here's what some known entries look like.
input: Indicate the recorded Signal/background value for this binder: 18181-F3 (scFv, scFv in bacterial lysate, detected with anti-Flag M2) scFv: EVQLLESGGGLVQPGGSLRLSCAASGFTFSNAWMSWVRQAPGKGLEWVGRIKGNTYGGTTDYAAPVKGRFTISRDDSKNTLFLQMNSLKTEDTAVYYCTTPSYSGSYYNYFSVMDVWGQGTTVTVSSGGGGSGGGGSGGGGSELVMTQSPSSLSASVGDRVTITCRTSQSISSYLNWYQQKPGRAPKLLIFAASSLQGGVPSRFSGSGSGTDFTLTISSLQPEDFATYYCQQSYSSPFTFGPGTKVEIK
output: 1

input: Indicate the recorded Signal/background value for this binder: 18182-E1 (scFv, scFv in bacterial lysate, detected with anti-Flag M2) scFv: EVQLLESGGGLVQPGGSLRLSCAASGFTFSSHAMSWVRQAPGKGLEWVSAISGSGGGTYNADSVKGRFTISRDNSKNTLYLQMNSLRAEDTAAYYCVTGKGVHLGFDYWGQGTLVTVSSGGGGSGGGGSGGGGSELVLTQPPSVSVAPGQTARITCGGNNIGSKSVHWYQQKPGQAPVMVVYDDNDRPSGIPERFSGSNSGNTATLTISRVEAGDEADYYCQVWDSSSDHVVFGGGTKLTVL
output: 1

Now examine the next entry.
input: Indicate the recorded Signal/background value for this binder: 18089-B2 (scFv, scFv in bacterial lysate, detected with anti-Flag M2) scFv: EVQLLESGGGLVQPGGSLRLSCAASGFTFSSYAMSWVRQAPGRGLEWVSTISISGGSTNYADSVKGRFTISRDNSKNTLYLQMNSLRAEDTAVYYCAKDGGSGWFPKLLHYGLDVWGQGTTVTVSSGGGGSGGGGSGGGGSELQMTQSPSSLSASVGDRVTITCQASQDISNYLNWYQQKPGKAPKLLIYAASSLQSGVPSRFSGSGSGTDFTLTISSLQPEDFATYYCQQSYSIPLTFGGGTKVEIK
output: 1
